# Tested on: Aeromonas liquefacieus Y-62
# measurementDescription: Oral effect against Aeromonas infection in goldfish
# Format: in vivo
# testParameters: 0.1% in diet (PA 6.1, AT-1493 7.5, AT-1557 7.6, AT-1475 7.5 mg/kg); day 0: PA 10, others 5 fish
Examples of compounds with documented Number of surviving fish after 1 day follow.
The answer should be a number; do not append a unit.

Check out these entries, answers already filled in.
* CCn1cc(C(=O)O)c(=O)c2cnc(N3CCCC3)nc21 | 10
* C=Cn1cc(C(=O)O)c(=O)c2ccc(N3CCNCC3)nc21 | 5
* C=Cn1cc(C(=O)O)c(=O)c2ccc(N3CCN(C)CC3)cc21 | 5

Attention now shifts to the item below.
Please look up its Number of surviving fish after 1 day: "C=Cn1cc(C(=O)O)c(=O)c2ccc(N3CCN(CC)CC3)cc21"
5
